ASSAY_METHOD_TEXT: Pharmacokinetics after iv and oral administration, P‐S difference method, Bcrp(−/−) mice
Type: in vivo
COND: male, FVB Bcrp(−/−), mouse, systemic plasma (abdominal vein), po, Bcrp(−/−) mice; p.o. (ciprofloxacin 1, nitrofurantoin 2, topotecan 1, sulfasalazine 5 mg/kg); systemic (sys) plasma
Protocol: Male Mdr1a/1b(−/−) and Bcrp(−/−) mice, and WT mice of the same genetic background (FVB) were obtained from Taconic Farms (Germantown, NY, USA). […] Food and water were available ad libitum. […] After organic layer was evaporated at 60°C, the resultant residues were dissolved in a mobile phase. […] All drugs were analyzed by HPLC system (Shimadzu LC‐10AS pump, Shimadzu SIL‐10A autosampler) equipped with a reverse‐phase column (COSMOSIL 5C18‐AR‐II, 3.5‐μm […], 4.6 × 150 mm). […]
RECORDED_ENDPOINT: half-life (h)
Numbers only, in h.

O=C(O)c1cc(/N=N/c2ccc(S(=O)(=O)Nc3ccccn3)cc2)ccc1O :: 7

IN: Report half-life for O=C1CN(/N=C/c2ccc([N+](=O)[O-])o2)C(=O)N1 please.
OUT: 1.25

* * *

So I've got a bunch of compounds here, and I need their Vd values.
ASSAY_METHOD_TEXT: Pharmacokinetics after iv and oral administration, P‐S difference method, Bcrp(−/−) mice
Format: in vivo
COND: male, FVB Bcrp(−/−), mouse, plasma (systemic, abdominal vein); Bcrp(−/−) mice; iv 1 mg/kg; read-out: Vdss
Where a name gives a salt, the structure may show the parent alone.
Answers are plain numbers, in L/kg.

O=C(O)c1cc(/N=N/c2ccc(S(=O)(=O)Nc3ccccn3)cc2)ccc1O [sulfasalazine, Sulfasalazine] :: 0.19
O=C1CN(/N=C/c2ccc([N+](=O)[O-])o2)C(=O)N1 [nitrofurantoin, Nitrofurantoin] :: 1.45

Pending compound:
IN: Report Vd for CC[C@@]1(O)C(=O)OCc2c1cc1n(c2=O)Cc2cc3c(CN(C)C)c(O)ccc3nc2-1 [topotecan, Topotecan HCl] please.
OUT: 2.21

* * *

So I've got a bunch of compounds here, and I need their AUC(0-inf) values.
ASSAY_METHOD_TEXT: Pharmacokinetics after iv and oral administration, P‐S difference method, Mdr1a/1b(−/−) mice
Type: in vivo
COND: male, Mdr1a/1b(−/−) (FVB background), mouse, plasma; Mdr1a/1b(−/−) mice; iv 1 mg/kg; read-out: AUC 0→∞
Protocol: Male Mdr1a/1b(−/−) and Bcrp(−/−) mice, and WT mice of the same genetic background (FVB) were obtained from Taconic Farms (Germantown, NY, USA). […] Food and water were available ad libitum. […] After organic layer was evaporated at 60°C, the resultant residues were dissolved in a mobile phase. […] All drugs were analyzed by HPLC system (Shimadzu LC‐10AS pump, Shimadzu SIL‐10A autosampler) equipped with a reverse‐phase column (COSMOSIL 5C18‐AR‐II, 3.5‐μm […], 4.6 × 150 mm). […]
Where a name gives a salt, the structure may show the parent alone.
Answers are plain numbers, in nM·h.

O=C(O)c1cc(/N=N/c2ccc(S(=O)(=O)Nc3ccccn3)cc2)ccc1O [sulfasalazine, Sulfasalazine] :: 4280

Pending compound:
IN: Report AUC(0-inf) for CC[C@@]1(O)C(=O)OCc2c1cc1n(c2=O)Cc2cc3c(CN(C)C)c(O)ccc3nc2-1 [topotecan, Topotecan HCl] please.
OUT: 1020
